B1: 6NMW (parent)
chain: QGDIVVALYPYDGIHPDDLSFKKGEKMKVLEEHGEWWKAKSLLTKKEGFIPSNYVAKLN

Variants of: B1
Assay: folding stability dG (cDNA display proteolysis); higher = more stable
Settings: PBS, room temperature
Threshold rule: folding stability dG greater than or equal to 3 kcal/mol is 1.0; below that, 0.0.

Quick check: does `E35C` have folding stability dG greater than or equal to 3 kcal/mol?
1.0

Quick check: does `L42V` have folding stability dG greater than or equal to 3 kcal/mol?
0.0

Quick check: does `L8W` have folding stability dG greater than or equal to 3 kcal/mol?
0.0

Quick check: does `T44I` have folding stability dG greater than or equal to 3 kcal/mol?
0.0

Quick check: does `V5Y` have folding stability dG greater than or equal to 3 kcal/mol?
1.0

Quick check: does `G24S` have folding stability dG greater than or equal to 3 kcal/mol?
0.0

Quick check: does `Q1H` have folding stability dG greater than or equal to 3 kcal/mol?
1.0

Quick check: does `L8D` have folding stability dG greater than or equal to 3 kcal/mol?
0.0

Quick check: does `G34T` have folding stability dG greater than or equal to 3 kcal/mol?
0.0

Quick check: does `K46L` have folding stability dG greater than or equal to 3 kcal/mol?
1.0

Quick check: does `Y9E` have folding stability dG greater than or equal to 3 kcal/mol?
0.0

Quick check: does `G48Y` have folding stability dG greater than or equal to 3 kcal/mol?
0.0

Quick check: does `I4S` have folding stability dG greater than or equal to 3 kcal/mol?
0.0

Quick check: does `T44D` have folding stability dG greater than or equal to 3 kcal/mol?
0.0

Quick check: does `L30H` have folding stability dG greater than or equal to 3 kcal/mol?
0.0

Quick check: does `T44E` have folding stability dG greater than or equal to 3 kcal/mol?
0.0

Quick check: does `W36Y` have folding stability dG greater than or equal to 3 kcal/mol?
1.0

Quick check: does `I50C` have folding stability dG greater than or equal to 3 kcal/mol?
0.0

Quick check: does `D3N` have folding stability dG greater than or equal to 3 kcal/mol?
1.0

Quick check: does `G2F` have folding stability dG greater than or equal to 3 kcal/mol?
1.0

Quick check: does `S20Q` have folding stability dG greater than or equal to 3 kcal/mol?
0.0

Quick check: does `K40I` have folding stability dG greater than or equal to 3 kcal/mol?
1.0

Quick check: does `D3V` have folding stability dG greater than or equal to 3 kcal/mol?
1.0

Quick check: does `S20A` have folding stability dG greater than or equal to 3 kcal/mol?
0.0

Quick check: does `L30K` have folding stability dG greater than or equal to 3 kcal/mol?
0.0

Quick check: does `P51H` have folding stability dG greater than or equal to 3 kcal/mol?
0.0

Quick check: does `L8Y` have folding stability dG greater than or equal to 3 kcal/mol?
0.0

Quick check: does `D3R` have folding stability dG greater than or equal to 3 kcal/mol?
1.0

Quick check: does `A39V` have folding stability dG greater than or equal to 3 kcal/mol?
1.0

Quick check: does `K22V` have folding stability dG greater than or equal to 3 kcal/mol?
1.0

Quick check: does `E47M` have folding stability dG greater than or equal to 3 kcal/mol?
1.0

Quick check: does `Y54W` have folding stability dG greater than or equal to 3 kcal/mol?
0.0

Quick check: does `E35K` have folding stability dG greater than or equal to 3 kcal/mol?
1.0

Quick check: does `T44H` have folding stability dG greater than or equal to 3 kcal/mol?
0.0

Quick check: does `V29Q` have folding stability dG greater than or equal to 3 kcal/mol?
0.0

Quick check: does `H33V` have folding stability dG greater than or equal to 3 kcal/mol?
1.0

Quick check: does `V29R` have folding stability dG greater than or equal to 3 kcal/mol?
0.0

Quick check: does `I14K` have folding stability dG greater than or equal to 3 kcal/mol?
1.0

Quick check: does `E31L` have folding stability dG greater than or equal to 3 kcal/mol?
0.0

Quick check: does `V6H` have folding stability dG greater than or equal to 3 kcal/mol?
0.0

Quick check: does `E35P` have folding stability dG greater than or equal to 3 kcal/mol?
1.0

Quick check: does `S20Y` have folding stability dG greater than or equal to 3 kcal/mol?
0.0

Quick check: does `S52A` have folding stability dG greater than or equal to 3 kcal/mol?
1.0

Quick check: does `H15V` have folding stability dG greater than or equal to 3 kcal/mol?
0.0

Quick check: does `E35H` have folding stability dG greater than or equal to 3 kcal/mol?
1.0
